Source of measurements: ChEMBL document CHEMBL1140652

- System: Enterococcus faecalis
- protocol.description: microbe, parasite or virus in culture
- Description: Antibacterial activity against Enterococcus faecalis MGH2 EF1-1
measure: log10 of MIC (log10 of the value in µg/mL)

item.smiles | measure | assay.value
CC(=O)NC[C@H]1CN(c2ccc3c(c2)CCCc2c(NCCc4ccc(O)cc4)n[nH]c2-3)C(=O)O1 | log10 of MIC | 0.00
CC(=O)NC[C@H]1CN(c2ccc3c(c2)CCCc2c(NCCCN)n[nH]c2-3)C(=O)O1 | log10 of MIC | 0.90
COc1ccc(CNc2n[nH]c3c2CCCc2cc(N4C[C@H](CNC(C)=O)OC4=O)ccc2-3)cc1 | log10 of MIC | 0.00
CCNc1n[nH]c2c1CCCc1cc(N3C[C@H](CNC(C)=O)OC3=O)ccc1-2 | log10 of MIC | 0.00
COCCNc1n[nH]c2c1CCCc1cc(N3C[C@H](CNC(C)=O)OC3=O)ccc1-2 | log10 of MIC | 0.30
CCCNc1n[nH]c2c1CCCc1cc(N3C[C@H](CNC(C)=O)OC3=O)ccc1-2 | log10 of MIC | 0.00
CC(=O)NC[C@H]1CN(c2ccc3c(c2)CCCc2c(NC(=O)CO)n[nH]c2-3)C(=O)O1 | log10 of MIC | 0.60
COCCCNc1n[nH]c2c1CCCc1cc(N3C[C@H](CNC(C)=O)OC3=O)ccc1-2 | log10 of MIC | 0.60
CC(=O)NC[C@H]1CN(c2ccc3c(c2)CCCc2c(Nc4ccccc4)n[nH]c2-3)C(=O)O1 | log10 of MIC | -0.30
CC(=O)NC[C@H]1CN(c2ccc3c(c2)CCCc2c(NCCCO)n[nH]c2-3)C(=O)O1 | log10 of MIC | 0.90

* * *

Catalogue of compounds with associated MIC
- Test system: Enterococcus faecalis
- protocol.description: microbe, parasite or virus in culture

compound | MIC / µg/mL
CCN(CC)CCCNc1n[nH]c2c1CCCc1cc(N3C[C@H](CNC(C)=O)OC3=O)ccc1-2 | 32
CC(=O)NC[C@H]1CN(c2ccc3c(c2)CCCc2c(NC(=O)C(O)CO)n[nH]c2-3)C(=O)O1 (stereo not given in full) | 16
CC(=O)NC[C@H]1CN(c2ccc3c(c2)CCCc2c(NCCc4ccccn4)n[nH]c2-3)C(=O)O1 | 1
CC(=O)NC[C@H]1CN(c2ccc3c(c2)CCCc2c(NC(C)C)n[nH]c2-3)C(=O)O1 | 2
CC(=O)NC[C@H]1CN(c2ccc3c(c2)CCCc2c(NCc4ccccc4)n[nH]c2-3)C(=O)O1 | 1

* * *

- System: Moraxella catarrhalis
- protocol.description: microbe, parasite or virus in culture
- Description: Antibacterial activity against Moraxella catarrhalis BC-3531
measure: MIC (µg/mL)

item.smiles | measure | assay.value
COc1ccc(CNc2n[nH]c3c2CCCc2cc(N4C[C@H](CNC(C)=O)OC4=O)ccc2-3)cc1 | MIC | 4
CNc1n[nH]c2c1CCCc1cc(N3C[C@H](CNC(C)=O)OC3=O)ccc1-2 | MIC | 2
CC(=O)NC[C@H]1CN(c2ccc3c(c2)CCCc2c(NC(C)C)n[nH]c2-3)C(=O)O1 | MIC | 8
CC(=O)NC[C@H]1CN(c2ccc3c(c2)CCCc2c(NCCc4ccc(O)cc4)n[nH]c2-3)C(=O)O1 | MIC | 2
COCCNc1n[nH]c2c1CCCc1cc(N3C[C@H](CNC(C)=O)OC3=O)ccc1-2 | MIC | 8
CC(=O)NC[C@H]1CN(c2ccc3c(c2)CCCc2c(N)n[nH]c2-3)C(=O)O1 | MIC | 2
CC(=O)NC[C@H]1CN(c2ccc3c(c2)CCCc2c(NC(=O)CO)n[nH]c2-3)C(=O)O1 | MIC | 16
CC(=O)NC[C@H]1CN(c2ccc3c(c2)CCCc2c(NCc4ccccc4)n[nH]c2-3)C(=O)O1 | MIC | 4
CC(=O)NC[C@H]1CN(c2ccc3c(c2)CCCc2c(NCCN4CCOCC4)n[nH]c2-3)C(=O)O1 | MIC | 16
CC(=O)NC[C@H]1CN(c2ccc3c(c2)CCCc2c(NCCCO)n[nH]c2-3)C(=O)O1 | MIC | 32
CC(=O)NC[C@H]1CN(c2ccc3c(c2)CCCc2c(NCCCN)n[nH]c2-3)C(=O)O1 | MIC | 32
